// provenance: patent US20240301052A1

TGT: T1, human SLC34A2 (human, UniProt O95436 1-690)
T1 construct: whole, on cells; also called human solute carrier 34 A2; NaPi2b
T1 sequence (looked up): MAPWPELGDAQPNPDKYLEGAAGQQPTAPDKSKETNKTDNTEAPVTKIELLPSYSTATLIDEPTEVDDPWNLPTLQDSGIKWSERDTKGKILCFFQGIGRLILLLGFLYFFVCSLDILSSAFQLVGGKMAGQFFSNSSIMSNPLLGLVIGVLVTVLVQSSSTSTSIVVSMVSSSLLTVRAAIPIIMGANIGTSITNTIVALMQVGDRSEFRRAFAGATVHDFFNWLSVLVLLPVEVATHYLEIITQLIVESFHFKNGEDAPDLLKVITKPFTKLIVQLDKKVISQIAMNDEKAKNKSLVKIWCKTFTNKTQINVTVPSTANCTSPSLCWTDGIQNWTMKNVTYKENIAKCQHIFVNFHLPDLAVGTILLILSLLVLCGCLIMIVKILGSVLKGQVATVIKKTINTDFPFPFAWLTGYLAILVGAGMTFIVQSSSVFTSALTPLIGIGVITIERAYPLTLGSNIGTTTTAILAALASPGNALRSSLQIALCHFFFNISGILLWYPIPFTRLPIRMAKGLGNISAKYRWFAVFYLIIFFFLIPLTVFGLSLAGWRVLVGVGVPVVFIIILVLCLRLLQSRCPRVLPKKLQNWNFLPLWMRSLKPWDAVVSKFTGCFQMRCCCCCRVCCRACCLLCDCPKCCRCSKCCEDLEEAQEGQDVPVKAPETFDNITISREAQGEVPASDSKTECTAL
METHOD_DESCRIPTION: FACS, RMG-1 cells
EXPERIMENTAL_ENDPOINT: pEC50
pEC50 here: minus log base 10 of the concentration, concentration in moles per litre.

These recorded examples may help you get a feel for the data.
30H9B8F9.p1.z5 hIgG1 (antibody, V domains shown, humanized hIgG1) VH: QVQLVQSGAEVKKPGASVKVSCKTSGYTFTTNNMHWVRQAPGQGLEWIGAIYPGSGATAYNQKFKGRVTMTADTSTSTVYMELSSLRSEDTAVYYCARGMYGHGAMDYWGQGTLVTVSS VL: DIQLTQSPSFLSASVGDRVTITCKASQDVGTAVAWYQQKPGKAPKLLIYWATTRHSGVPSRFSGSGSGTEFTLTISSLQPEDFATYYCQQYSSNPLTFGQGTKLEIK :: 8.85
63A11D5B4.p1.z9 hIgG1 (antibody, V domains shown, humanized hIgG1) VH: QVQLVQSGAEVVKPGASVKMSCKTSGYTFITYNMHWVRQAPGQGLEWIGAIYPGSGDTSYNQKFKGRVTLTADKSTSTAYMELSSLRSEDTAVYYCSISTIITTGAVDYWGQGTLVTVSS VL: DIQMTQSPSSLSASVGDRVTITCKASQDVGTAVAWYQQKPGKVPKLLIYWTSTRHTGVPSRFSGSGSGTDFTLTISSLQPEDVATYYCQQYSRIPLTFGGGTKVEIK :: 7.55

# input for lookup
[Q] Quick one: pEC50 of 62G10E4G8.p3.z15 hIgG1 (antibody, V domains shown, humanized hIgG1) VH: QVQLVQSGAEVVKPGASVKMSCKASGYTFPSYITHWVKQAPGQGLEWIGAIYPGNADTSYIQKFKGRATLTADKSTSTAYMELSSLRSEDTAVYYCARGTYGTSAWFTYWGQGTLVTVSS VL: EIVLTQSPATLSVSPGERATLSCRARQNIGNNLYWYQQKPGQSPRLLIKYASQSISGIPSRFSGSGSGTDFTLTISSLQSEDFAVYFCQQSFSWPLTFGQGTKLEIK ?
[A] 8.43
